- TARGET OF ASSAY: HLA-A*0301 on mild-acid treated EKR cells (human)
- METHOD DESCRIPTION: competition vs FL-reference peptide, EKR cells, 4°C 24 hr
pIC50: −log10 of the molar value.

BINDER: TTLEQQYNK [HPV16 E6 93-101]
RELATION SYMBOL: =
pIC50: 5.38
--
BINDER: IVYRDGNPY [HPV16 E6 59-67]
RELATION SYMBOL: =
pIC50: 6.10
--
BINDER: QQLLRREVY [HPV16 E6 42-50]
RELATION SYMBOL: <
pIC50: 4.60
--
BINDER: KVFPCALINK [non-labeled HLA-A*0301 reference peptide]
RELATION SYMBOL: =
pIC50: 6.15
